These measurements were taken from patent US4272437A.

Endpoint: MIC. System: Pr. morganii A-15153. Items follow.

Consider the following illustrative entries.
{"columns": ["COMPOUND", "SYSTEM UNDER TEST", "MIC"],
 "data": [
  ["NCCC1=C(C(=O)O)N2C(=O)CC2S1 (centres unmarked) [Example 24, 2-Aminoethylpenem-3-carboxylic Acid]", "Pr. morganii A-15153", "125 µg/mL"],
  ["NCCCCCC1=C(C(=O)O)N2C(=O)C[C@H]2S1 [Example 87]", "Pr. morganii A-15153", "4 µg/mL"],
  ["CCOP(=O)(CCC1=C(C(=O)O)N2C(=O)CC2S1)OCC (centres unmarked) [Preparation 25]", "Pr. morganii A-15153", "63 µg/mL"],
  ["NC=NCC1=C(C(=O)O)N2C(=O)CC2S1 (centres unmarked) [16 (6)]", "Pr. morganii A-15153", "32 µg/mL"]
]}

Read the next record carefully.
Asked: What value of measured MIC is listed for O=C(O)C1=C(C(F)(F)F)SC2CC(=O)N12 (centres unmarked) [Example 17] ?
Given back: > 125 µg/mL
